Tgt: D(1A) dopamine receptor (Homo sapiens, UniProt P21728)
Sequence (P21728 whole entry): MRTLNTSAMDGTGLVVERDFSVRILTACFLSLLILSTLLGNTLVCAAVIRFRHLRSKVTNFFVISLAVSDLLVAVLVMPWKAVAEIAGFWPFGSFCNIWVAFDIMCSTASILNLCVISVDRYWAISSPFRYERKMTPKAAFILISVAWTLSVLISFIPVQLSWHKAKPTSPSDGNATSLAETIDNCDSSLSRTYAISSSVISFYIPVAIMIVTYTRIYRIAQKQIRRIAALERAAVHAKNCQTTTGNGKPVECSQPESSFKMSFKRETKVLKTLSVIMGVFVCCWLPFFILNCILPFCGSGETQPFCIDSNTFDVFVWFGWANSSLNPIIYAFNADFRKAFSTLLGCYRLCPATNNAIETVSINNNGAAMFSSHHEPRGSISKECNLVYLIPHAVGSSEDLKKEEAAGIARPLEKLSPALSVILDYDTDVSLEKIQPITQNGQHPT
Protocol details: Compound was evaluated for Dopamine receptor D1 binding
Parameter measured: Ki

Task: Provide one value: measured Ki of `COc1cc(N)c(Cl)cc1C(=O)NC[C@@H]1CCN2CCC[C@@H]12`
Output: > 10 µM

====

Tgt: 5-hydroxytryptamine receptor 4 (Rattus norvegicus)
Sequence (Q62758 whole entry): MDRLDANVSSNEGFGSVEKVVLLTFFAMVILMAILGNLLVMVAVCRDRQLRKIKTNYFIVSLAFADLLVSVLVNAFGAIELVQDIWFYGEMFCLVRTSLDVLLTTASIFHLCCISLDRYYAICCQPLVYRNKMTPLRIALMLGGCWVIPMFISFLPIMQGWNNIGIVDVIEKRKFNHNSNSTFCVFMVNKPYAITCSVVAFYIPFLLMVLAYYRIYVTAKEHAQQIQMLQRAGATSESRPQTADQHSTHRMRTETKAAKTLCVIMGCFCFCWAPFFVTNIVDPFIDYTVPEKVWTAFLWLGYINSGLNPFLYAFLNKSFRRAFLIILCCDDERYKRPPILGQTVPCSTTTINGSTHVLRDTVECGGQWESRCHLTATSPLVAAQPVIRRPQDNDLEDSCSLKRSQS
Protocol details: Tested for agonist activity at the 5-hydroxytryptamine 4 receptor in the rat tunica muscularis mucosae (TMM) assay of racemate mixture
Format: functional
Parameter measured: EC50 (nM)
One number for each entry, in nM.

Task: Provide one value: measured EC50 of `COc1cc(N)c(Cl)cc1C(=O)NC[C@@H]1CCN2CCC[C@@H]12`
Output: 66

src = ChEMBL document CHEMBL1146779
